Molecular target: CH0505_CON D7gp120/293i
Experiment: ELISA
// LogAUC lookup, one value per entry
Give the figure only, with no unit attached.

| binder | LogAUC |
| --- | --- |
| CH493 (antibody, V domains shown, also called CH235.9; DH493) VH: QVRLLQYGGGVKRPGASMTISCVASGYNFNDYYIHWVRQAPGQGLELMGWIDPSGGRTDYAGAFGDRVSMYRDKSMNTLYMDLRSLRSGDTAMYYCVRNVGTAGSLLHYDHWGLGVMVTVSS VL: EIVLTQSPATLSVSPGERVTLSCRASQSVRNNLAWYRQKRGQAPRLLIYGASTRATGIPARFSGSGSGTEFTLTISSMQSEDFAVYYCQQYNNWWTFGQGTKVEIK | 8.67 |

The binder listed as CH236 (antibody, V domains shown, also called CH236_4A/293i) VH: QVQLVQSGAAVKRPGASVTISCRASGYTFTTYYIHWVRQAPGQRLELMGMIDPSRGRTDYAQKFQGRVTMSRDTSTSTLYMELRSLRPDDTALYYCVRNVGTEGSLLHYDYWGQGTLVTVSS VL: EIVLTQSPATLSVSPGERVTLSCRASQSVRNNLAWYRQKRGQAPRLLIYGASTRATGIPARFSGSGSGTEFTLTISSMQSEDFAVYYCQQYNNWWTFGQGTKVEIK has a reported LogAUC of 6.89

The binder listed as CH555 (antibody, V domains shown, also called CH235.10) VH: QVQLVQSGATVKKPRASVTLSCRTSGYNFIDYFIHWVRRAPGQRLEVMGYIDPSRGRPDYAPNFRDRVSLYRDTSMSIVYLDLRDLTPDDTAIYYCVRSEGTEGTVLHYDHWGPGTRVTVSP VL: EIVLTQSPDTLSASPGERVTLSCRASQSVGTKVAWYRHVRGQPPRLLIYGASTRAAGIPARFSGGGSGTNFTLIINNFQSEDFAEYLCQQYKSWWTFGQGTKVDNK has a reported LogAUC of 7.23
